Give EC50 for every item shown.
- measurement target: human TLX (Homo sapiens)
- Sequence (Q9Y466 155-383 limits assumed): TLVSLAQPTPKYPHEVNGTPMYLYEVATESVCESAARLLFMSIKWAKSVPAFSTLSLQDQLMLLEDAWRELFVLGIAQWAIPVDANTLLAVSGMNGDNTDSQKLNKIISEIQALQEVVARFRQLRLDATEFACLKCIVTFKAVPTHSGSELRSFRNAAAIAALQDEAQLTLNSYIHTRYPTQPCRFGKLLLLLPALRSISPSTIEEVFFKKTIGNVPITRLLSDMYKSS
- test name: Gal4 hybrid reporter gene assay (TLX modulation)
- condition set: Gal4-TLX hybrid reporter in HEK293T cells, 16 h incubation

The reported EC50 of the compound Cc1cc(-c2cc(N)cc(C#N)c2)ccn1 was 5900 nM

The reported EC50 of the compound Cc1cc(-c2cc(N)cc(Cl)c2Cl)ccn1 was 9600 nM

The reported EC50 of the compound CCOc1cc(C(=O)Nc2cc(-n3cnc(C)c3)cc(C(F)(F)F)c2)c2ccccc2n1 was 1100 nM

The reported EC50 of the compound Cc1cn(-c2cc(NC(=O)c3ccc(C(F)(F)F)cc3)cc(C(F)(F)F)c2)cn1 was 3300 nM

The reported EC50 of the compound Cc1cc(-c2cc(N)cc3[nH]ccc23)ccn1 was 3800 nM

The reported EC50 of the compound Nc1cc(-c2cncnc2)cc(C(F)(F)F)c1 was 2100 nM

The reported EC50 of the compound CC(=O)Nc1cc(-c2ccnc(C)c2)cc(C(F)(F)F)c1 was 2600 nM

The reported EC50 of the compound Nc1cc(-c2cscn2)cc(C(F)(F)F)c1 was 11000 nM

The reported EC50 of the compound CC(=O)c1ccc(-c2cc(N)cc(C(F)(F)F)c2)s1 was 4400 nM

The reported EC50 of the compound Cc1cc(-c2cc(N)cc(C(F)(F)F)c2)cc(C)n1 was 1600 nM

The reported EC50 of the compound Cc1cn(-c2cc(NC(=O)Cc3cccnc3)cc(C(F)(F)F)c2)cn1 was 1400 nM

The reported EC50 of the compound Cn1ccc2cc(-c3cc(N)cc(C(F)(F)F)c3)cnc21 was 400 nM

The reported EC50 of the compound CC(=O)c1cc(-c2cc(NC(=O)Cc3ccccc3Cl)cc(C(F)(F)F)c2)cs1 was 360 nM

The reported EC50 of the compound Nc1cc(-c2ccn3ccnc3c2)cc(C(F)(F)F)c1 was 3700 nM

The reported EC50 of the compound Cc1cn(-c2cc(NC(=O)c3ccc(Cl)c(Cl)c3)cc(C(F)(F)F)c2)cn1 was 2100 nM

The reported EC50 of the compound Cc1cc(-c2cc(NC(=O)C3CCC3)cc(C(F)(F)F)c2)ccn1 was 600 nM

The reported EC50 of the compound Nc1cc(-c2ccncc2)cc(C(F)(F)F)c1 was 13000 nM

The reported EC50 of the compound Nc1cc(-c2ccc3c(c2)CCN3)cc(C(F)(F)F)c1 was 2300 nM

The reported EC50 of the compound CC(=O)c1cc(-c2cc(NC(=O)c3ccnc4ccccc34)cc(C(F)(F)F)c2)cs1 was 1100 nM

The reported EC50 of the compound CC(=O)c1cc(-c2cc(N)cc(C(F)(F)F)c2)cs1 was 700 nM

The reported EC50 of the compound Nc1cc(-n2cccc2)cc(C(F)(F)F)c1 was 15000 nM

The reported EC50 of the compound Cc1cn(-c2cc(NC(=O)c3ccccc3)cc(C(F)(F)F)c2)cn1 was 8000 nM

The reported EC50 of the compound Cc1ccc(C(=O)Nc2cc(-n3cnc(C)c3)cc(C(F)(F)F)c2)cc1 was 1400 nM

The reported EC50 of the compound Cc1cc(-c2cc(N)c3cn[nH]c3c2)ccn1 was 7900 nM

The reported EC50 of the compound Cc1cc(-c2cc(N)cc(C(F)(F)F)c2)ccn1 was 6600 nM

The reported EC50 of the compound Cc1cc(-c2cc(N)cc(Cl)c2)ccn1 was 10000 nM

The reported EC50 of the compound Nc1cc(-n2cnc3ccccc32)cc(C(F)(F)F)c1 was 2400 nM

The reported EC50 of the compound Cn1cc(-c2cc(N)cc(C(F)(F)F)c2)cn1 was 9500 nM

The reported EC50 of the compound Cc1cn(-c2cc(NC(=O)c3ccc(Cl)c4ccccc34)cc(C(F)(F)F)c2)cn1 was 1800 nM

The reported EC50 of the compound Cc1cn(-c2cc(NC(=O)c3ccc(Cl)cc3)cc(C(F)(F)F)c2)cn1 was 2300 nM

The reported EC50 of the compound Cc1cc(-c2cc(NC(=O)c3ccc4ccccc4c3)cc(C(F)(F)F)c2)ccn1 was 970 nM

The reported EC50 of the compound Cc1cc(-c2cc(N)cc(OC(F)(F)F)c2)ccn1 was 13600 nM

The reported EC50 of the compound Nc1cc(-n2ccnc2)cc(C(F)(F)F)c1 was 4400 nM

The reported EC50 of the compound Cc1cc(-c2cc(NC(=O)c3cc(C)[nH]n3)cc(C(F)(F)F)c2)ccn1 was 3300 nM

The reported EC50 of the compound Cc1cn(-c2cccc(NC(=O)Cc3ccccc3Cl)c2)cn1 was 1900 nM
